# test target: T1, recombinant human PCSK9 protein, His-tagged (Immunogen A, hPCSK9-His) (human, UniProt Q8NBP7 31-692, limits assumed, biotin-labelled in the ELISA and blocking assays (Biotin labeling kit))
# T1 construct: also called human PCSK9-His; recombinant hPCSK9-His; not shown: His tag
# experimental protocol: blocking ELISA, biotin-hPCSK9-His on coated LDLR ECD-His; antibody 0.06 nM
Listing of recorded OD450 nm (PCSK9 bound to LDLR) by entry.
Please answer using the number first and the unit second.

152G2F7, chimeric anti-PCSK9 mAb purified from hybridoma (antibody, V domains shown, From Harbour H2L2 mice: human variable regions, rat constant regions) VH: EVQLVESGGGLVQPGGSLRLSCAASEFTFGGYWMTWVRQAPGKGLEWVANIKQDGSEKYYVDSVKGRFTISRDNAKNSLYLHMNSLRAEDTAVYYCARDRTTMIRGVSLYYYYYGMDVWGQGTAVTVSS VL: EIVLTQSPATLSLSPGERATLSCRASQSVSSYLAWYQQKPGQAPRLLIYDASNRATGIPARFSGSGSGTDFTLTISSLEPEDFAVYYCQQRSNWPLTFGGGTKVEIK; 1.2 OD450 nm

Turning now to a further binder:
Q: Entry 139G1C5, chimeric anti-PCSK9 mAb purified from hybridoma (antibody, V domains shown, From Harbour H2L2 mice: human variable regions, rat constant regions) VH: QVQLQESGPGLVKPSGTLSLTCAVSGGSISRNNWWSWVRQPPGKGLEWIGEIYHSGSTNYNPSLKSRVTISVDKSKNQFSLKLSSVTAADTAVYYCARDLLGIGLDYWGQGTLVTVSS VL: EFVLTQSPATLSLSPGERAILSCRASQSFSSYIAWYQQKPGQAPRLLIYDASNRATGIPARFSGSGSGTDFTLTISSLEPEDFAVYYCQQHSNWMYTFGQGTKLEIK : reported OD450 nm (PCSK9 bound to LDLR) = ?
Ans: 1.13 OD450 nm
